biological target: UniProt:Q8WTS6; assay: Inhibition of SET7 (unknown origin)-mediated methylation of histone H3(1-20)cys-biotin at 15 to 50 uM after 5 mins by scintillation proximity assay in presence of [3H]-S-adenosyl-methionine
Calls of active or inactive are those of the source. The rule behind the calls is not given here.
MEASURED QUANTITY: inhibition

Check out these entries, answers already filled in.
| INPUT SMILES | inhibition |
| --- | --- |
| O=C(O)c1ccccc1S(=O)(=O)Nc1cccc(-n2ccc3c(-c4ccc(C(F)(F)F)cc4)cccc32)c1 | Active |
| O=[N+]([O-])c1ccccc1S(=O)(=O)Nc1cccc(-n2ccc3c(-c4ccc(C(F)(F)F)cc4)cccc32)c1 | Active |
| CC(=O)Nc1nc(C)c(S(=O)(=O)Nc2cccc(-n3ccc4c(-c5ccc(C(F)(F)F)cc5)cccc43)c2)s1 | Active |
| O=C(O)c1cccc(NCc2ccc(-n3ccc4c(-c5ccc(C(F)(F)F)cc5)ncnc43)s2)c1 | Active |
| CS(=O)(=O)c1ccc(S(=O)(=O)Nc2cccc(-n3ccc4c(-c5ccc(C(F)(F)F)cc5)cccc43)c2)cc1 | Active |
| O=C(O)c1cccc(S(=O)(=O)Nc2cccc(-n3ccc4c(-c5ccc(C(F)(F)F)cc5)cccc43)c2)c1 | Active |

// fetch inhibition given entry O=C(O)c1ccc(S(=O)(=O)Nc2cccc(-n3ccc4c(-c5ccc(C(F)(F)F)cc5)cccc43)c2)cc1
Active

Input O=C(O)c1cccc(NCc2cccc(-n3ccc4c(-c5ccc(C(F)(F)F)cc5)ncnc43)c2)c1 , output reported inhibition.
Active

Please report the measured inhibition for O=C(O)c1cccc(NCc2cccc(-n3ncc4cc(-c5ccc(C(F)(F)F)cc5)ccc43)c2)c1
Active

* * *

Biological target: Histone-lysine N-methyltransferase SETD7 (Homo sapiens) (UniProt Q8WTS6)
Sequence (whole entry): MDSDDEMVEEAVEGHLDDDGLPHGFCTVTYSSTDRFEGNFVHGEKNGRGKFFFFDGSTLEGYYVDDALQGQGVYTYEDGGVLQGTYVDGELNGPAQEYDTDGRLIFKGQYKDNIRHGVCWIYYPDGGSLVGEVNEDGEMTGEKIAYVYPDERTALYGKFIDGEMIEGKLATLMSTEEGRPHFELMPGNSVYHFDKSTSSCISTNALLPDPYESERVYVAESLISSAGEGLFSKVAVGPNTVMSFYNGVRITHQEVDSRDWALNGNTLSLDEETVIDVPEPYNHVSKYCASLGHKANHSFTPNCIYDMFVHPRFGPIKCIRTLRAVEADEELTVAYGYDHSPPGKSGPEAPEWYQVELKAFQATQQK
Assay: Inhibition of methyl-transferase activity in GST-tagged recombinant SET7/9 (unknown origin) expressed in Escherichia coli BL21 using H3(1-20)-cys-biotin as substrate at 40 uM preincubated for 5 mins followed by substrate addition by ELISA relative to control
Active and inactive are the calls of the source. The rule behind the calls is not given here.
MEASURED QUANTITY: inhibition

| INPUT SMILES | TARGET OF ASSAY | MEASURED QUANTITY | REPORTED MEASUREMENT |
| --- | --- | --- | --- |
| O=C(O)c1cccc(NCc2cccc(-n3ccc4c(-c5ccc(C(F)(F)F)cc5)cccc43)c2)c1 | Histone-lysine N-methyltransferase SETD7 (Homo sapiens) (UniProt Q8WTS6) | inhibition | Active |
| O=C(O)c1cccc(SCc2cccc(-n3ccc4c(-c5ccccc5)cccc43)c2)c1 | Histone-lysine N-methyltransferase SETD7 (Homo sapiens) (UniProt Q8WTS6) | inhibition | 50% |
| Cc1ccc(-c2cccc3c2ccn3-c2cccc(CNc3cccc(C(=O)O)c3)c2)cc1 | Histone-lysine N-methyltransferase SETD7 (Homo sapiens) (UniProt Q8WTS6) | inhibition | Active |
| N[C@@H](CCSCc1cccc(-n2ccc3cc(Br)ccc32)c1)C(=O)O | Histone-lysine N-methyltransferase SETD7 (Homo sapiens) (UniProt Q8WTS6) | inhibition | 12% |
| O=C(O)c1cccc(NCc2cccc(-n3ccc4c(-c5ccc6ccccc6c5)cccc43)c2)c1 | Histone-lysine N-methyltransferase SETD7 (Homo sapiens) (UniProt Q8WTS6) | inhibition | Active |
| CC(=O)Nc1ccc(-c2cccc3c2ccn3-c2cccc(CNc3cccc(C(=O)O)c3)c2)cc1 | Histone-lysine N-methyltransferase SETD7 (Homo sapiens) (UniProt Q8WTS6) | inhibition | Active |

Give inhibition for this entry on Histone-lysine N-methyltransferase SETD7 (Homo sapiens) (UniProt Q8WTS6): O=C(O)CCCSCc1cccc(-n2ccc3cc(Br)ccc32)c1
Active

Recall the reported inhibition of O=C(O)c1cccc(SCc2cccc(-n3ccc4cc(Br)ccc43)c2)c1 on Histone-lysine N-methyltransferase SETD7 (Homo sapiens) (UniProt Q8WTS6) and write it down.
Active

Provide inhibition, recorded with Histone-lysine N-methyltransferase SETD7 (Homo sapiens) (UniProt Q8WTS6), of O=C(O)c1cccc(SCc2cccc(-n3ccc4c(Br)cccc43)c2)c1
Active

Recall the reported inhibition of O=C(O)c1cccc(NCc2cccc(-n3ccc4c(-c5ccccc5)cccc43)c2)c1 on Histone-lysine N-methyltransferase SETD7 (Homo sapiens) (UniProt Q8WTS6) and write it down.
50%
